experimental.protocol: Aqueous solubility, direct UV kinetic solubility method
Format: physicochemical
experimental.conditions: 1x PBS, pH 7.4, aqueous buffer, kinetic from dmso stock; read-out: Aqueous Solubility in 1x PBS, pH 7.4
readout.kind: solubility at 18 h (µg/mL)
The reply should contain only the number, in µg/mL.

q: Request the reported solubility at 18 h associated with COc1cc2nc(C3CC3)nc(N3CCN(c4ccccc4OC)CC3)c2cc1OC [Compound 315]
a: 0.45

====

experimental.protocol: Plasma protein binding, Rapid Equilibrium Device, human plasma
Type: in vitro ADME
experimental.conditions: human plasma (EDTA), diluted 1:1 with PBS, pH 7.4; Human, 10 μM; read-out: Plasma Protein Binding (% Bound) (converted)
readout.kind: fraction unbound at 4 h, 10 μM
Respond with the number and no other words.

q: # get_value(readout='fraction unbound at 4 h, 10 μM', item= COc1cc2nc(C3CC3)nc(N3CCN(c4ccccc4OC)CC3)c2cc1OC )
a: 0.0078

====

experimental.protocol: Plasma protein binding, Rapid Equilibrium Device, mouse plasma
Type: in vitro ADME
experimental.conditions: mouse plasma (EDTA), diluted 1:1 with PBS, pH 7.4, 1 μM, read-out: Plasma Protein Binding (% Bound) (converted)
Experimental: The extent of compound bound to plasma proteins was measured using the Rapid Equilibrium Device (Pierce Thermo Scientific, Rockford Ill.). The base plate was rinsed with […] followed by 2× washes with ultrapure water and allowed to dry. […] Results reported are the mean of each reaction duplicate, normalized to the internal standard, and expressed as a percent compound bound after the incubation time. […]
readout.kind: fraction unbound at 4 h, 1 μM
API note: the answer field is a bare number with no unit suffix.

q: If you can, please state the reported fraction unbound at 4 h, 1 μM value of COc1cc2nc(C3CC3)nc(N3CCN(c4ccccc4OC)CC3)c2cc1OC [Compound 315] .
a: 0.0033

====

experimental.protocol: Aqueous solubility, direct UV kinetic solubility method
Type: physicochemical
experimental.conditions: pION's buffer, pH 7.4, aqueous buffer, kinetic from dmso stock; read-out: Aqueous Solubility in pION's buffer
readout.kind: solubility at 18 h (µg/mL)
Unit µg/mL implied. Number only.

q: Entry COc1cc2nc(C3CC3)nc(N3CCN(c4ccccc4OC)CC3)c2cc1OC has what solubility at 18 h?
a: 0.52

====

experimental.protocol: Plasma protein binding, Rapid Equilibrium Device, human plasma
Assay type: in vitro ADME
experimental.conditions: human plasma (EDTA), diluted 1:1 with PBS, pH 7.4; Human, 1 μM; read-out: Plasma Protein Binding (% Bound) (converted)
readout.kind: fraction unbound at 4 h, 1 μM
# respond with the number and nothing more

q: Which measured fraction unbound at 4 h, 1 μM value corresponds to COc1cc2nc(C3CC3)nc(N3CCN(c4ccccc4OC)CC3)c2cc1OC [Compound 315] ?
a: 0.0055

====

system.name: NTR1 (Homo sapiens, UniProt P30989)
experimental.protocol: NTR1 high-content imaging (HCS) dose response, NTR1-U2OS cells
Format: cell-based
Design: host or cells: U2OS osteosarcoma
experimental.conditions: n = 4 unless otherwise noted; read-out: HCS NTR1 Potency Emax
Reported Emax values follow for various compounds
Give a bare numeral; the unit % is implied.

compound	unit.string	readout.value
COc1cc2nc(C3CC3)nc(N3CCN(c4ccccc4Cl)CC3)c2cc1OC [Compound 340]	%	100
COc1ccc2nc(C3CC3)nc(N3CCN(c4ccccc4OC)CC3)c2c1 [Compound 338]	%	95.7

From here, focus on the item given below.
q: What value of Emax has been reported for the following compound? COc1cc2nc(C3CC3)nc(N3CCN(C(=O)c4ccccc4)CC3)c2cc1OC [Compound 344]
a: 100

====

system.name: NTSR1 (NTR1) (Homo sapiens, UniProt P30989)
Sequence (P30989 whole entry): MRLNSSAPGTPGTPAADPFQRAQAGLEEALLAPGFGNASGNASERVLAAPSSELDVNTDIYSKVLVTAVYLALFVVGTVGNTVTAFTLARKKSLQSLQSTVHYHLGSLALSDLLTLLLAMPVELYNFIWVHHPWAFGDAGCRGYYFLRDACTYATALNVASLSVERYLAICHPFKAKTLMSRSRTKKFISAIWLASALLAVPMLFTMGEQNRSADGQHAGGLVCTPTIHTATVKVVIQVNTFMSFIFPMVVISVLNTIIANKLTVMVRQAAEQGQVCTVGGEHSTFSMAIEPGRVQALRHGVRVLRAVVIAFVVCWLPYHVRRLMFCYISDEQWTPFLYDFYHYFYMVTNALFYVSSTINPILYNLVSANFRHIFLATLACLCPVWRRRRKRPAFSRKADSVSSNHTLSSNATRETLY
experimental.protocol: NTR1 β-Arrestin dose response (DiscoveRx PathHunter, CHO-K1)
readout.kind: pEC50
The scale used: pEC50 is minus the common logarithm of the concentration in molar units.

q: Fill in the blank: the reported pEC50 of COc1cc2nc(C3CC3)nc(N3CCN(c4ccccc4OC)CC3)c2cc1OC [Compound 315] is ____.
a: 5.47

====

system.name: NTR1 (Homo sapiens)
experimental.protocol: NTR1 high-content imaging (HCS) dose response, NTR1-U2OS cells
Format: cell-based
Design: host or cells: U2OS osteosarcoma
experimental.conditions: n = 4 unless otherwise noted; read-out: HCS NTR1 Potency Emax
Reported Emax values follow for various compounds
Number first, unit second.

compound	Emax
COc1cc2nc(C(C)C)nc(N3CCN(c4ccccc4OC)CC3)c2cc1OC [Compound 312]	100%
COc1cc2nc(Cc3ccccc3)nc(N3CCN(c4ccccc4OC)CC3)c2cc1OC [Compound 309]	81.9%
COc1cc2nc(C3CCCC3)nc(N3CCN(c4ccccc4OC)CC3)c2cc1OC [Compound 316]	92.8%

Consider now this further compound.
q: Please look up its Emax: COc1ccccc1CN1CCN(c2nc(C3CC3)nc3cc(OC)c(OC)cc23)CC1 [Compound 343]
a: 100%

====

system.name: NTR1 (Homo sapiens, UniProt P30989)
experimental.protocol: NTR1 high-content imaging (HCS) dose response, NTR1-U2OS cells
Assay type: cell-based
Set-up: host or cells: U2OS osteosarcoma
experimental.conditions: n = 4 unless otherwise noted; read-out: HCS NTR1 Potency Emax
Listing: Emax of selected compounds
// return numeric value only (unit: %, not printed)

structure.notation	readout.kind	readout.value
CCOc1ccccc1N1CCN(c2nc(C3CC3)nc3cc(OC)c(OC)cc23)CC1	Emax	98.4

q: Data request, read-out Emax, for COc1cc2nc(CC3CC3)nc(N3CCN(c4ccccc4OC)CC3)c2cc1OC
a: 96.9

q: // Emax lookup, key: COc1ccccc1N1CCN(c2nc(C3CCC3)nc3ccccc23)CC1
a: 100

q: Look up Emax for this compound: COc1ccccc1N1CCN(c2nc(C3CCC3)nc3cc4c(cc23)OCO4)CC1
a: 87

q: Given the compound COc1ccc(N2CCN(c3nc(C4CCC4)nc4cc(OC)c(OC)cc34)CC2)c(OC)c1 , what is its reported Emax?
a: 103

q: Can you share its Emax? I mean this compound: COc1ccc2nc(C3CCC3)nc(N3CCN(c4ccccc4OC)CC3)c2c1
a: 102

q: What does the record list as Emax for CCc1nc(N2CCN(c3ccccc3OC)CC2)c2cc(OC)c(OC)cc2n1 ?
a: 100

q: For the compound COc1cccc(N2CCN(c3nc(C4CCC4)nc4cc(OC)c(OC)cc34)CC2)c1 , what Emax is on record?
a: 74.9

====

system.name: UniProtKB P30989
experimental.protocol: NTR1 high-content imaging (HCS) dose response, NTR1-U2OS cells
Type: cell-based
Parameters: host or cells: U2OS osteosarcoma
experimental.conditions: n = 4 unless otherwise noted; read-out: HCS NTR1 Potency Emax
readout.kind: Emax (%)
API: value field is a number in %; no unit string.

Consider the reported Emax for these molecules:
molecule	unit.string	Emax
COc1cc2nc(C3CCC3)nc(N3CCN(c4c(C)cccc4C)CC3)c2cc1OC [Compound 331]	%	100
COc1cc2nc(C3CCC3)nc(N3CCN(c4ccccc4F)CC3)c2cc1OC [Compound 324]	%	97.2
COc1ccc2c(N3CCN(c4ccccc4OC)CC3)nc(C3CCC3)nc2c1 [Compound 335]	%	112
COc1cc2nc(C3CCC3)nc(N3CCN(c4ccccc4[N+](=O)[O-])CC3)c2cc1OC [Compound 327]	%	100

q: Which Emax reading was recorded for the molecule COc1cc2nc(C3CCC3)nc(N3CCN(c4ccccc4Cl)CC3)c2cc1OC [Compound 325] ?
a: 70.5

q: Which Emax is reported for this molecule? COc1cc2nc(CC(C)C)nc(N3CCN(c4ccccc4OC)CC3)c2cc1OC [Compound 313]
a: 96.3

q: Which Emax is reported for this molecule? COc1cc2nc(-c3ccccc3)nc(N3CCN(c4ccccc4OC)CC3)c2cc1OC [6,7-di-OMe; phenyl; 2-OMe]
a: 78

q: Entry COc1cc2nc(C3CCC3)nc(N3CCN(c4ccccn4)CC3)c2cc1OC [Compound 326] : reported Emax = ?
a: 91.4

q: Which Emax value is on record for COc1ccc(N2CCN(c3nc(C4CCC4)nc4cc(OC)c(OC)cc34)CC2)cc1 [Compound 329] ?
a: 100

q: Entry CCCc1nc(N2CCN(c3ccccc3OC)CC2)c2cc(OC)c(OC)cc2n1 [Compound 311] has what Emax?
a: 100

q: Give its Emax value. Item: C=Cc1nc(N2CCN(c3ccccc3OC)CC2)c2cc(OC)c(OC)cc2n1 [Compound 314]
a: 100

q: Please give the measured Emax for this molecule: COc1cc2nc(CCN3CCN(c4ccccc4OC)CC3)nc(N3CCN(c4ccccc4OC)CC3)c2cc1OC [Compound 319]
a: 74.3

q: Any idea what Emax was measured for COc1cc2nc(C3CC3)nc(N3CCN(c4ccccc4OC)CC3)c2cc1OC [Compound 315] ?
a: 105

q: Data request, read-out Emax, for COc1cc2nc(C3CC3)nc(N3CCN(C(=O)c4ccccc4OC)CC3)c2cc1OC [Compound 345]
a: 100
